target: KDR (phospho-KDR, VEGF165-stimulated HUVEC cells) (Homo sapiens (Human), UniProt P35968); test: KDR autophosphorylation ELISA in HUVEC cells (Example G); assay type: cell-based; details: cellular activity; KDR autophosphorylation ELISA in HUVEC cells
Sequence (P35968 20-1356): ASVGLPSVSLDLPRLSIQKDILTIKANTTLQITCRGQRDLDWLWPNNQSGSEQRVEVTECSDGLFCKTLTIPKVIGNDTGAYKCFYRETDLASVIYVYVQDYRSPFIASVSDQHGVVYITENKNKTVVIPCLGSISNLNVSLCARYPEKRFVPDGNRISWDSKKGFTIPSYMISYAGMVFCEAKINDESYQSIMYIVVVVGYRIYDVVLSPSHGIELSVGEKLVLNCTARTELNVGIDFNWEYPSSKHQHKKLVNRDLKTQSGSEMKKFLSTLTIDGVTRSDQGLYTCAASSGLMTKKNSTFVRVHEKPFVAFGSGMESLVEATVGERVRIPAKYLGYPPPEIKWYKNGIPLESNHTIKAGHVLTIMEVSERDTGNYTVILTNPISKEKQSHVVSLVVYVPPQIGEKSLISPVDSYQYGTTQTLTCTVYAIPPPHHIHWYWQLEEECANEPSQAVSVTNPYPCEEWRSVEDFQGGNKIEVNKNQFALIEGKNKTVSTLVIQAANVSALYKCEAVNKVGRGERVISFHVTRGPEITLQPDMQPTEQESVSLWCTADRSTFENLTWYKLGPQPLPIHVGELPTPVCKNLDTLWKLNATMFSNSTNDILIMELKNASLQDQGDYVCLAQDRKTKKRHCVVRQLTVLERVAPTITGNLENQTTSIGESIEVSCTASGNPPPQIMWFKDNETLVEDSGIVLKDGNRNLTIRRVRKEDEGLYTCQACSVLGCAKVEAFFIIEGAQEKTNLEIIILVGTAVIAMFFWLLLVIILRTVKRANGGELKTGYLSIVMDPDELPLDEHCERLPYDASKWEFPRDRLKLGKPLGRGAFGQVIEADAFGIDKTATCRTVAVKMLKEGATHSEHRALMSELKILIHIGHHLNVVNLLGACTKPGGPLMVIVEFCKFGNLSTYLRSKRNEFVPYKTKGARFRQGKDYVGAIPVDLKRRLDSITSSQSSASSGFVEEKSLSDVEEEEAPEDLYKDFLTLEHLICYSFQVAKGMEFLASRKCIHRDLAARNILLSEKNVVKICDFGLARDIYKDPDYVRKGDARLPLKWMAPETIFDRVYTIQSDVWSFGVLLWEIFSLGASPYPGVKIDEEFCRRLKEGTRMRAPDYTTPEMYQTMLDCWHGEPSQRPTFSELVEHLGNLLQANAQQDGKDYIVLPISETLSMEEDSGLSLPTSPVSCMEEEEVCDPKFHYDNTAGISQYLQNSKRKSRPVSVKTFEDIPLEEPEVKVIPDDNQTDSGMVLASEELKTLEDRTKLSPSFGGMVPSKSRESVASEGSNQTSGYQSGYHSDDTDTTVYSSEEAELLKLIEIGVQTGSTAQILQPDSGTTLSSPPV
Where a name gives a salt, the structure may show the parent alone.
Reported IC50 values for a set of molecules

Q) IC50 lookup needed for COc1cnc2c(Oc3ccc(NC(=O)c4cn(C)cc(-c5ccccc5)c4=O)cc3F)ccnc2c1 [Compound 40, hydrochloride] , thanks.
A) < 100 nM

Q) Now give it for COc1cc2nccc(Oc3ccc(NC(=O)c4cn(C(C)C)c(C)c(-c5ccc(F)cc5)c4=O)cc3)c2nc1OC [Compound 115] too.
A) > 300 nM

Q) Now give it for Cc1nc(C)c(-c2ccc(F)cc2)c(O)c1C(=O)Nc1ccc(Oc2ccnc3ccc(OCCN(C)C)nc23)c(F)c1 [Compound 354] too.
A) < 100 nM

Q) Now give it for COc1ccc2nccc(Oc3ccc(NC(=O)c4cn(C)c(CF)c(-c5ccc(F)cc5)c4=O)cc3F)c2n1 [Compound 561] too.
A) > 300 nM

Q) Now give it for COc1cnc2c(Oc3ccc(NC(=O)c4c(C)nc(C)c(-c5ccc(F)cc5OC)c4O)cc3F)ccnc2c1 [Compound 686] too.
A) < 100 nM
